The values you see were collected from patent US20260049092A1.

tested on: K. pneumoniae ATCC13883; assay: Bacterial susceptibility testing (MIC, broth microdilution); format: cell-based; conditions: Klebsiella pneumoniae, ATCC13883, read-out: K. pneumoniae ATCC13883 MIC
Binary call on MIC with cut-off 2 µg/mL: strictly below means TRUE, and equality or higher means FALSE.

[[record]]
compound = "C[C@H](O)c1nccn1[C@@H](C#Cc1ccc(-c2ccc(NC3CN(CCC#N)C3)cc2)cc1)CO [Compound 79]"
class_label = "FALSE"

[[record]]
compound = "C[C@H](O)c1nccn1[C@@H](C#Cc1ccc(-c2ccc(OC3CN(CC#N)C3)cc2)cc1)CO [Compound 92]"
class_label = "TRUE"

[[record]]
compound = "C[C@H](O)c1nccn1[C@@H](C#Cc1ccc(-c2ccc(OC3CN(C(N)=O)C3)cc2)cc1)CO [Compound 94]"
class_label = "FALSE"

[[record]]
compound = "C[C@H](O)c1nccn1[C@@H](C#Cc1ccc(-c2ccc(OC3CN(CCC#N)C3)cc2)cc1)CO [Compound 93]"
class_label = "TRUE"


---

tested on: P. aeruginosa ATCC27853; assay: Bacterial susceptibility testing (MIC, broth microdilution); assay type: cell-based; settings: Pseudomonas aeruginosa, ATCC27853, broth microdilution, cation adjusted Mueller-Hinton Broth, 35° C., 18-24 h; read-out: P. aeruginosa ATCC27853 MIC
ASSAY METRIC: MIC (µg/mL)

[[record]]
compound = "C[C@H](O)c1nccn1[C@@H](C#Cc1ccc(-c2ccc(O[C@@H]3COC[C@H]3O)c(F)c2)c(F)c1)CO (single isomer, unassigned)"
units = "µg/mL"
readout_number = 8

[[record]]
compound = "C[C@H](O)c1nccn1[C@@H](C#Cc1ccc(-c2ccc(C3COC3)cc2)cc1)CO"
units = "µg/mL"
readout_number = 4

[[record]]
compound = "C[C@H](O)c1nccn1[C@@H](C#Cc1ccc(-c2ccc(CO[C@H]3COC[C@@H]3O)cc2F)cc1)CO (single isomer, unassigned)"
units = "µg/mL"
readout_number = 4


---

tested on: P. aeruginosa ATCC27853; test: Bacterial susceptibility testing (MIC, broth microdilution); type: cell-based; conditions: Pseudomonas aeruginosa, ATCC27853, broth microdilution, cation adjusted Mueller-Hinton Broth, 35° C., 18-24 h; read-out: P. aeruginosa ATCC27853 MIC
ASSAY METRIC: MIC

[[record]]
compound = "C[C@H](O)c1nccn1[C@@H](C#Cc1ccc(-c2ccc(N3CCC3=O)cc2)cc1)CO (single isomer, unassigned)"
assay_metric = "MIC"
result = "> 32 µg/mL"

[[record]]
compound = "C[C@H](O)c1nccn1[C@@H](C#Cc1ccc(-c2ccc(O[C@H]3C[C@H](C#N)C3)cc2)cc1)CO (racemic)"
assay_metric = "MIC"
result = "> 32 µg/mL"

[[record]]
compound = "C[C@H](O)c1nccn1[C@@H](C#Cc1ccc(-c2ccc(O[C@H]3C[C@@H](NCC#N)C3)cc2)cc1)CO (racemic)"
assay_metric = "MIC"
result = "> 32 µg/mL"


---

Test system: P. aeruginosa ATCC27853
Assay: Bacterial susceptibility testing (MIC, broth microdilution)
Assay type: cell-based
Details: Pseudomonas aeruginosa, ATCC27853, broth microdilution, cation adjusted Mueller-Hinton Broth, 35° C., 18-24 h; read-out: P. aeruginosa ATCC27853 MIC
Protocol: Minimal inhibitory concentrations (MIC) were determined by the broth microdilution method in accordance with the Clinical and Laboratory Standards Institute (CLSI) guidelines. […] Following incubation, the lowest concentration of the drug that prevented visible growth (OD600 nm<0.05) was recorded as the MIC. Performance of the assay was monitored by the use of laboratory quality -control strains and compounds with defined MIC spectrum, in accordance with CLSI guidelines.
ASSAY METRIC: MIC (µg/mL)

[[record]]
compound = "Cc1cc(-c2ccc(C#C[C@@H](CO)n3ccnc3[C@H](C)O)cc2)ccc1O[C@H]1COC[C@@H]1O (single isomer, unassigned) [Compound 114]"
assay_metric = "MIC"
cmp = ">"
readout_number = 32

[[record]]
compound = "C[C@H](O)c1nccn1[C@@H](C#Cc1ccc(-c2ccc(O[C@@H]3COC[C@H]3O)c(Cl)c2)cc1)CO (single isomer, unassigned) [Compound 62]"
assay_metric = "MIC"
cmp = ">"
readout_number = 32

[[record]]
compound = "C[C@H](O)c1nccn1[C@@H](C#Cc1ccc(-c2ccc3c(c2)OCCO3)cc1)CO [Compound 82]"
assay_metric = "MIC"
cmp = ">"
readout_number = 32

[[record]]
compound = "C[C@H](O)c1nccn1[C@@H](C#Cc1ccc(-c2ccc(O[C@H]3COC[C@]3(O)C(F)(F)F)cc2)cc1)CO (racemic) [Compound 119]"
assay_metric = "MIC"
cmp = ">"
readout_number = 32

[[record]]
compound = "C[C@H](O)c1nccn1[C@@H](C#Cc1ccc(-c2ccn(C)c(=O)c2)cc1)CO [Compound 112]"
assay_metric = "MIC"
cmp = ">"
readout_number = 32

[[record]]
compound = "C[C@H](O)c1nccn1[C@@H](C#Cc1ccc(-c2ccc(OC3CCN(CC#N)C3)cc2)cc1)CO (mixture of isomers) [Compound 104]"
assay_metric = "MIC"
cmp = "="
readout_number = 2

[[record]]
compound = "C[C@H](O)c1nccn1[C@@H](C#Cc1ccc(-c2ccc(N[C@H]3CCC[C@@H]3O)cc2)cc1)CO (single isomer, unassigned) [Compound 77]"
assay_metric = "MIC"
cmp = "="
readout_number = 4

[[record]]
compound = "C[C@H](O)c1nccn1[C@@H](C#Cc1ccc(-c2ccc3c(c2)NC(=O)C3)cc1)CO [Compound 84]"
assay_metric = "MIC"
cmp = "="
readout_number = 16

[[record]]
compound = "C[C@H](O)c1nccn1[C@@H](C#Cc1ccc(-c2ccc(CN[C@@H]3COC[C@H]3O)cc2)cc1)CO (racemic) [Compound 65]"
assay_metric = "MIC"
cmp = "="
readout_number = 4

[[record]]
compound = "CO[C@@H]1COC[C@H]1Oc1ccc(-c2ccc(C#C[C@@H](CO)n3ccnc3[C@H](C)O)cc2)cc1 (single isomer, unassigned) [Compound 126]"
assay_metric = "MIC"
cmp = "="
readout_number = 4

[[record]]
compound = "C[C@H](O)c1nccn1[C@@H](C#Cc1ccc(-c2ccc(O[C@@H]3CCOC[C@H]3O)c(F)c2)cc1)CO (racemic) [Compound 51]"
assay_metric = "MIC"
cmp = "="
readout_number = 8

[[record]]
compound = "C[C@H](O)c1nccn1[C@@H](C#Cc1ccc(-c2ccc(OC3CCN(CC#N)CC3)cc2)cc1)CO (single isomer, unassigned) [Compound 103]"
assay_metric = "MIC"
cmp = "="
readout_number = 2


---

System: P. aeruginosa ATCC27853
Experiment: Bacterial susceptibility testing (MIC, broth microdilution)
Assay type: cell-based
Details: Pseudomonas aeruginosa, ATCC27853, broth microdilution, cation adjusted Mueller-Hinton Broth, 35° C., 18-24 h; read-out: P. aeruginosa ATCC27853 MIC
Description: Minimal inhibitory concentrations (MIC) were determined by the broth microdilution method in accordance with the Clinical and Laboratory Standards Institute (CLSI) guidelines. […] Following incubation, the lowest concentration of the drug that prevented visible growth (OD600 nm<0.05) was recorded as the MIC. Performance of the assay was monitored by the use of laboratory quality -control strains and compounds with defined MIC spectrum, in accordance with CLSI guidelines.
ASSAY METRIC: MIC (µg/mL)

[[record]]
compound = "C[C@H](O)c1nccn1[C@@H](C#Cc1ccc(-c2ccc(O[C@H]3CCOC[C@@H]3O)cc2F)cc1)CO (single isomer, unassigned)"
assay_metric = "MIC"
units = "µg/mL"
cmp = "="
readout_number = 8

[[record]]
compound = "C[C@H](O)c1nccn1[C@@H](C#Cc1ccc(-c2ccc(CC3CN(CC#N)C3)cc2)cc1)CO (single isomer, unassigned)"
assay_metric = "MIC"
units = "µg/mL"
cmp = "="
readout_number = 4

[[record]]
compound = "CC(=O)N[C@H]1C[C@@H](c2ccc(-c3ccc(C#C[C@@H](CO)n4ccnc4[C@H](C)O)cc3)cc2)C1 (racemic)"
assay_metric = "MIC"
units = "µg/mL"
cmp = "="
readout_number = 2

[[record]]
compound = "C[C@H](O)c1nccn1[C@@H](C#Cc1ccc(-c2ccc(CO[C@@H]3COC[C@H]3O)cc2)cc1)CO (single isomer, unassigned)"
assay_metric = "MIC"
units = "µg/mL"
cmp = "="
readout_number = 4

[[record]]
compound = "CC(=O)NCc1ccc(-c2ccc(C#C[C@@H](CO)n3ccnc3[C@H](C)O)cc2)cc1 (single isomer, unassigned)"
assay_metric = "MIC"
units = "µg/mL"
cmp = "="
readout_number = 8

[[record]]
compound = "Cc1cc(-c2ccc(C#C[C@@H](CO)n3ccnc3[C@H](C)O)cc2)ccc1O[C@@H]1COC[C@H]1O (single isomer, unassigned)"
assay_metric = "MIC"
units = "µg/mL"
cmp = ">"
readout_number = 32

[[record]]
compound = "CNC(=O)[C@H]1C[C@H](Oc2ccc(-c3ccc(C#C[C@@H](CO)n4ccnc4[C@H](C)O)cc3)cc2)C1 (racemic)"
assay_metric = "MIC"
units = "µg/mL"
cmp = "="
readout_number = 2

[[record]]
compound = "C[C@H](O)c1nccn1[C@@H](C#Cc1ccc(-c2ccc(OC3COC[C@@H]3O)c(F)c2)cc1)CO (single isomer, unassigned)"
assay_metric = "MIC"
units = "µg/mL"
cmp = "="
readout_number = 4

[[record]]
compound = "C[C@H](O)c1nccn1[C@@H](C#Cc1ccc(-c2ccc(O[C@@H]3CCOC[C@H]3O)cc2F)cc1)CO (single isomer, unassigned) [Compound 55]"
assay_metric = "MIC"
units = "µg/mL"
cmp = "="
readout_number = 8

[[record]]
compound = "CC(=O)N1CC(Nc2ccc(-c3ccc(C#C[C@@H](CO)n4ccnc4[C@H](C)O)cc3)cc2)C1 (single isomer, unassigned)"
assay_metric = "MIC"
units = "µg/mL"
cmp = "="
readout_number = 4

[[record]]
compound = "CO[C@H]1C[C@H](c2ccc(-c3ccc(C#C[C@@H](CO)n4ccnc4[C@H](C)O)cc3)cc2)C1 (racemic)"
assay_metric = "MIC"
units = "µg/mL"
cmp = "="
readout_number = 4

